Source of measurements: PubChem BioAssay (NCI)

# TGI listing for each entry below
# System: IGROV1 ovarian
# testName: NCI tumour cell line growth inhibition, 48 h

Example entries begin here.
| molecule | reportedResult |
| --- | --- |
| Cc1cc(Cl)ccc1N=C1NC(=O)C(CC(=O)Nc2cccc(C)c2C)S1 (centres undefined) | > 100 µM |
| COc1ccc(CCc2ccc3c(c2)OCO3)cc1 | > 100 µM |
| CN(C)C(=S)/N=c1\ssc(=S)n1Cc1ccco1 | > 100 µM |
| C[C@]12CC(C=O)C(=O)C(O)=C1CC[C@@H]1C2CC[C@@]2(C)C1CC[C@]2(C)O (some centres undefined) | 47.5 µM |
| CC(=O)c1ccc2c3c1[C@H]1O[C@H]1c1cccc(c1-3)[C@@H]1O[C@H]21 | 0.294 µM |
| C=CC(=O)Nc1ccccc1CC(c1c[nH]c2ccccc12)c1c[nH]c2ccccc12 | 36.6 µM |

Could you share what TGI was measured for Cc1ccc2c(n1)NC(=O)C(Cc1ccccc1)(N=[N+]=[N-])C2=O (centres undefined) , tested on IGROV1 ovarian?
> 100 µM

Could you share what TGI was measured for C=C1CCC2[C@](C)(CCC[C@]2(C)C(=O)O)[C@@H]1CCc1ccoc1 (some centres undefined) , tested on IGROV1 ovarian?
84.8 µM

Could you share what TGI was measured for COc1c2cc([N+](=O)[O-])cc1CN(C(=O)C(F)(F)F)CCOCCN(C(=O)C(F)(F)F)C2 , tested on IGROV1 ovarian?
> 100 µM

Could you share what TGI was measured for O=c1cc(-c2ccccc2)oc2cc(OCCCCCN3CCOCC3)cc(O)c12 , tested on IGROV1 ovarian?
> 100 µM

Could you share what TGI was measured for CCCCSc1nc(N)c2cn[nH]c2n1 , tested on IGROV1 ovarian?
> 100 µM

Could you share what TGI was measured for COc1cc([C@@H]2OC(=O)C3C2C(=O)O[C@H]3c2ccc(O)c(OC)c2)ccc1O (some centres undefined) , tested on IGROV1 ovarian?
> 100 µM

Could you share what TGI was measured for CCCCCCCCC(C)CCCCCCCCC(=O)OCC(COP(=O)([O-])OCC[N+](C)(C)C)OC(=O)CCCCCCCCC(C)CCCCCCCC (centres undefined) , tested on IGROV1 ovarian?
> 100 µM

Could you share what TGI was measured for NC(Cc1cccnn1)C(=O)O (centres undefined) , tested on IGROV1 ovarian?
> 100 µM

* * *

# TGI listing for each entry below
# Tested on: SF-539 CNS
# testName: NCI tumour cell line growth inhibition, 48 h

Example entries begin here.
| smilesRepresentation | TGI |
| --- | --- |
| COc1c2cc([N+](=O)[O-])cc1CN(C(=O)C(F)(F)F)CCOCCN(C(=O)C(F)(F)F)C2 | > 100 µM |
| CC(=O)N1C(=O)c2cc3ccccc3cc21 | > 100 µM |

Reported TGI, molecule O=C(O/N=c1/ccc(=O)/c(=N\OC(=O)c2ccccc2)c1=O)c1ccccc1 : ____
> 100 µM

* * *

# Tested on: PC-3 prostate
# testName: NCI tumour cell line growth inhibition, 48 h
# TGI listing for each entry below

Example entries begin here.
| molecule | reportedProperty | reportedResult |
| --- | --- | --- |
| CN(C(=S)Cc1ccc(Cl)c(Cl)c1)C1CCCC[C@@H]1N1CCCC1 (stereo not given in full) | TGI | > 100 µM |
| Cc1c(NC(=O)CSC(=S)N(C)C)c(=O)n(-c2ccccc2)n1C | TGI | > 100 µM |
| CC(C)(O)CCc1cccc(C(=O)c2cnn(-c3ccc(F)cc3)c2N)c1 | TGI | > 25 µM |
| CN(C)CC1C(=O)O[C@H]2[C@H]1CC/C(COC(=O)NCc1ccc(Cn3c(=O)sn(CCCI)c3=O)cc1)=C\CC[C@@]1(C)O[C@@H]21 (stereo not given in full) | TGI | 7.32 µM |

Turning now to a further record.
Reported TGI, molecule CC(=Nc1cccc(Cl)c1)c1ccncc1 : ____
> 100 µM

* * *

# TGI listing for each entry below
# System: MOLT-4 leukemia
# testName: NCI tumour cell line growth inhibition, 48 h

Reported TGI, compound CC(C)=CCC/C(C)=C/Cc1c(O)c(C)cc2c1[nH]c1cc(O)ccc12 : ____
> 25 µM

Reported TGI, compound Cc1ccc2c(n1)NC(=O)C(Cc1ccccc1)(N=[N+]=[N-])C2=O (centres undefined) : ____
> 100 µM

Reported TGI, compound O=C1N/C(=N\N=C\c2ccccc2)C2(CCCCC2)O1 : ____
> 100 µM

* * *

# TGI listing for each entry below
# Test system: SK-MEL-28 melanoma
# testName: NCI tumour cell line growth inhibition, 48 h

| compound | TGI |
| --- | --- |
| COc1ccc2nc3n(c2c1)C(c1c(F)cccc1F)SC3 (stereo unspecified) | > 100 µM |

Reported TGI, compound CCOC(=O)C1=C(O)C(=O)c2ccoc2C1=O : ____
> 100 µM

Reported TGI, compound O=C(NCc1ccco1)C1CCN(S(=O)(=O)c2ccc(Cl)cc2)CC1 : ____
> 100 µM

Reported TGI, compound Cc1ccc2c(c1)C=CC1(O2)N(c2ccccc2)C(=S)OC1(C)C (stereo unspecified) : ____
> 100 µM

Reported TGI, compound COc1ccc(CCc2ccc3c(c2)OCO3)cc1 : ____
> 100 µM

Reported TGI, compound Clc1cc(OCc2nn3c(Cc4ccccc4)nnc3s2)c(Cl)cc1OCc1nn2c(Cc3ccccc3)nnc2s1 : ____
> 100 µM

Reported TGI, compound CC(NP(=O)(c1ccccc1)c1ccccc1)c1ccccc1 (stereo unspecified) : ____
> 100 µM

Reported TGI, compound CC(=O)CCc1ccc(Oc2c3c(nc4ccccc24)OCC3)cc1 : ____
> 100 µM

Reported TGI, compound COc1ccc(/C=N/N=C(\N)NO)cc1F : ____
> 100 µM

Reported TGI, compound Cc1cccc2c1Sc1ccccc1C2NC(=O)CN(C)C (stereo unspecified) : ____
> 100 µM

Reported TGI, compound COc1ccc(/C=C2\COc3ccc(O)c(O)c3C2=O)cc1OC : ____
3.69 µM

Reported TGI, compound c1ccc2c(c1)SCCc1cn[nH]c1-2 : ____
> 100 µM

* * *

# System: HOP-18 NSCLC
# testName: NCI tumour cell line growth inhibition, 48 h
# TGI listing for each entry below

Example entries begin here.
| molecule | reportedResult |
| --- | --- |
| O=[N+]([O-])c1cccc(S(=O)(=O)N/N=C/c2cc(I)cc([N+](=O)[O-])c2O)c1 | 78.6 µM |
| CN(C)N=Nc1cccc(C(N)=O)c1 | > 100 µM |
| Nc1ccc(Cn2ccc3c4c(N)nc(N)nc4ccc32)cc1 | 21.9 µM |
| CC(=O)[CH-]C(=O)c1ccccc1.CC(=O)[CH-]C(=O)c1ccccc1.CC[C@H](/C=C/C(C)[C@H]1CCC2[C@@H]3CC=C4C[C@@H]([O-])CC[C@]4(C)C3CC[C@@]21C)C(C)C.CC[C@H](/C=C/C(C)[C@H]1CCC2[C@@H]3CC=C4C[C@@H]([O-])CC[C@]4(C)C3CC[C@@]21C)C(C)C.Cl.[Ti+4] (stereo partly specified) | > 25 µM |
| CN(C)c1cccc(OC(=O)NCCCl)c1 | > 100 µM |
| CCCS(=O)c1nc(COC(=O)NC)c(COC(=O)NC)n1C (stereo unspecified) | > 100 µM |

Reported TGI, molecule COc1ccc(/C=N/N=C(\N)NO)cc1F : ____
90.5 µM

Reported TGI, molecule CCOC(=O)C(=O)Nc1c(C)cccc1C(C)(C)C : ____
> 100 µM

Reported TGI, molecule O=C1NC2C3CC(OCc4ccccc4)(OCc4ccccc4)C2OC3O1 (stereo unspecified) : ____
> 50 µM

Reported TGI, molecule CC[C@]1(O)C[C@H]2CN(CCc3c([nH]c4ccccc34)[C@@](C(=O)OC)(c3cc4c(cc3OC)N(C)[C@H]3[C@@](O)(C(=O)OC)[C@H](OC(C)=O)[C@]5(CC)C=CCN6CC[C@]43[C@@H]65)C2)C1 : ____
1.51 µM

Reported TGI, molecule CN(c1ccccc1)c1nc(=[N+]2CCCC2)ss1 : ____
> 100 µM

* * *

# Tested on: CAKI-1 renal
# testName: NCI tumour cell line growth inhibition, 48 h
reportedProperty: TGI

Could you share what TGI was measured for Cc1cc(S(=O)(=O)NC2=NCCCN2)c(S)cc1Cl , tested on CAKI-1 renal?
> 100 µM

Could you share what TGI was measured for O=C1CC(Cc2n[nH]c3c2CCCC3)CC(=O)N1 , tested on CAKI-1 renal?
> 100 µM

Could you share what TGI was measured for CCOC(=O)C1=C(O)C(=O)c2ccoc2C1=O , tested on CAKI-1 renal?
> 100 µM

Could you share what TGI was measured for Clc1ccc(C(Cc2ccccc2)c2c(Cl)nc(N3CCNCC3)nc2Cl)cc1 (stereo unspecified) , tested on CAKI-1 renal?
18 µM

Could you share what TGI was measured for C/C(O)=C(\C=NC(=S)c1cccnc1)C(=O)Nc1ccccc1C , tested on CAKI-1 renal?
> 100 µM

Could you share what TGI was measured for C=C1C(=O)O[C@@H]2CC(CO)=C([C@@H](C)CCCO)[C@@H](OC(=O)/C(C)=C\C)[C@H]12 , tested on CAKI-1 renal?
63.4 µM
